Give Minimal Inhibitory Concentration (MIC) for every item shown.
- Tested on: B. subtilis (KCTC 3068)
- Assay type: cell-based, Bacillus subtilis
- PROTOCOL CONDITIONS: broth microdilution in MHB, 37 °C, 24 h, 100% inhibition of growth
Where no end group is shown, it is not given here.
# output: bare number, implied unit µM

Input line: Lab request: please report Minimal Inhibitory Concentration (MIC) under test system B. subtilis (KCTC 3068) for KKLFKKWWKWL-NH2 [BP16]
Output line: 16

Input line: Lab request: please report Minimal Inhibitory Concentration (MIC) under test system B. subtilis (KCTC 3068) for KKLWKKIWKYL-NH2 [BP7]
Output line: 4

Input line: Lab request: please report Minimal Inhibitory Concentration (MIC) under test system B. subtilis (KCTC 3068) for KKWFKKILKWL-NH2 [BP6]
Output line: 4

Input line: Lab request: please report Minimal Inhibitory Concentration (MIC) under test system B. subtilis (KCTC 3068) for KKLWKKWLKYW-NH2 [BP14]
Output line: 4

Input line: Lab request: please report Minimal Inhibitory Concentration (MIC) under test system B. subtilis (KCTC 3068) for KKWWKKILKYL-NH2 [BP5]
Output line: 2

Input line: Lab request: please report Minimal Inhibitory Concentration (MIC) under test system B. subtilis (KCTC 3068) for KKLWKKIWKYW-NH2 [BP15]
Output line: 4

Input line: Lab request: please report Minimal Inhibitory Concentration (MIC) under test system B. subtilis (KCTC 3068) for KKLFKKWLKYW-NH2 [BP10]
Output line: 16

Input line: Lab request: please report Minimal Inhibitory Concentration (MIC) under test system B. subtilis (KCTC 3068) for KKWFKKWLKWL-NH2 [BP13]
Output line: 8

* * *

Give Minimal Inhibitory Concentration (MIC) for every item shown.
- System: MRSA (CCARM 3089)
- Format: cell-based, methicillin-resistant Staphylococcus aureus
- PROTOCOL CONDITIONS: broth microdilution in MHB, 37 °C, 24 h, 100% inhibition of growth
Where no end group is shown, it is not given here.
# output: bare number, implied unit µM

Input line: Request the reported Minimal Inhibitory Concentration (MIC) associated with KKLWKKWLKYW-NH2 [BP14]
Output line: 16

Input line: Request the reported Minimal Inhibitory Concentration (MIC) associated with KKLFKKWLKYW-NH2 [BP10]
Output line: 64

Input line: Request the reported Minimal Inhibitory Concentration (MIC) associated with KKLFKKWWKYL-NH2 [BP9]
Output line: 64

Input line: Request the reported Minimal Inhibitory Concentration (MIC) associated with KKLWKKIWKYL-NH2 [BP7]
Output line: 8

Input line: Request the reported Minimal Inhibitory Concentration (MIC) associated with KKLFKKIWKWL-NH2 [BP11]
Output line: 8

Input line: Request the reported Minimal Inhibitory Concentration (MIC) associated with KKLWKKILKWL-NH2 [BP8]
Output line: 16

Input line: Request the reported Minimal Inhibitory Concentration (MIC) associated with KKWFKKILKWL-NH2 [BP6]
Output line: 8

Input line: Request the reported Minimal Inhibitory Concentration (MIC) associated with KKLFKKILKWW-NH2 [BP12]
Output line: 64

Input line: Request the reported Minimal Inhibitory Concentration (MIC) associated with KKLWKKIWKYW-NH2 [BP15]
Output line: 16

Input line: Request the reported Minimal Inhibitory Concentration (MIC) associated with KKWWKKILKYL-NH2 [BP5]
Output line: 4

Input line: Request the reported Minimal Inhibitory Concentration (MIC) associated with KKLFKKWWKWL-NH2 [BP16]
Output line: 16

Input line: Request the reported Minimal Inhibitory Concentration (MIC) associated with KKWFKKWLKWL-NH2 [BP13]
Output line: 32
